Taken from patent US20220251192A1.

biological target: T1, CD33 (UniProt P20138 18-259, limits assumed); assay: SPR, Biacore T-200, CD33 amine-coupled on CM5 chip, antibody as analyte (31-500 nM)
T1 construct: CD33 protein used as the active surface in the Biacore assay (about 1000 RU); also called Siglec-3; SIGLEC3
T1 sequence (P20138 18-259 limits assumed): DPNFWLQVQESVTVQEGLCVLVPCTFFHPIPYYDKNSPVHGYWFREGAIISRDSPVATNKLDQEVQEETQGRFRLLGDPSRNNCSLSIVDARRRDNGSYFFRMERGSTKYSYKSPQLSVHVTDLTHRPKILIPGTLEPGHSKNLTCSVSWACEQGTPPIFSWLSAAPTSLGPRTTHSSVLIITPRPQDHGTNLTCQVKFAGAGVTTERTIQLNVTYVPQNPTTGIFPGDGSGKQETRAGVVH
Experimental endpoint: kon (M⁻¹ s⁻¹)
# output: bare number, implied unit M⁻¹ s⁻¹

Here's what some known entries look like.
# Binder, U, kon
data = [
    ("My96-H1L3 (antibody, human IgG1, V domains shown, Humanized My96 IgG (human IgG1 frameworks), expressed in DG44 cells; also called humanized My96 VH-1/VL-3) VH: QVQLVQSGAEVKKPGASVKVSCKASGYTFTSYYMHWVRQAPGQGLEWMGVIYPGNDDISYAQKFQGRVTMTADTSTSTVYMELSSLRSEDTAVYYCAREVRLRYFDVWGAGTTVTVSS VL: NIVLTQSPDSLAVSLGERATINCKSSQSVFFSSSQKNYLAWYQQRPGQPPKLLIYWASTRESGVPDRFSGSGSGTDFTLTISRLQAEDVAVYYCHQYLSSRTFGGGTKVEIK", "M⁻¹ s⁻¹", 563000),
    ("My96-H1L2 (antibody, human IgG1, V domains shown, Humanized My96 IgG (human IgG1 frameworks), expressed in DG44 cells; also called humanized My96 VH-1/VL-2) VH: QVQLVQSGAEVKKPGASVKVSCKASGYTFTSYYMHWVRQAPGQGLEWMGVIYPGNDDISYAQKFQGRVTMTADTSTSTVYMELSSLRSEDTAVYYCAREVRLRYFDVWGAGTTVTVSS VL: NIVLTQSPDSLAVSLGERATINCKSSQSVFFSSSQKNYLAWYQQKPGQPPKLLIYWASTRESGVPDRFSGSGSGTDFTLTISSLQAEDVAVYYCHQYLSSRTFGGGTKLEIK", "M⁻¹ s⁻¹", 473000),
    ("My96-H2L2 (antibody, human IgG1, V domains shown, Humanized My96 IgG (human IgG1 frameworks), expressed in DG44 cells; also called humanized My96 VH-2/VL-2) VH: QVQLVQSGAEVKKPGASVKVSCKASGYTFTSYYMHWVRQAPGQGLEWMGVIYPGNDDISYNQKFQGRVTMTADKSTSTVYMELSSLRSEDTAVYYCAREVRLRYFDVWGAGTTVTVSS VL: NIVLTQSPDSLAVSLGERATINCKSSQSVFFSSSQKNYLAWYQQKPGQPPKLLIYWASTRESGVPDRFSGSGSGTDFTLTISSLQAEDVAVYYCHQYLSSRTFGGGTKLEIK", "M⁻¹ s⁻¹", 520000),
    ("My96-H2L3 (antibody, human IgG1, V domains shown, Humanized My96 IgG (human IgG1 frameworks), expressed in DG44 cells; also called humanized My96 VH-2/VL-3) VH: QVQLVQSGAEVKKPGASVKVSCKASGYTFTSYYMHWVRQAPGQGLEWMGVIYPGNDDISYNQKFQGRVTMTADKSTSTVYMELSSLRSEDTAVYYCAREVRLRYFDVWGAGTTVTVSS VL: NIVLTQSPDSLAVSLGERATINCKSSQSVFFSSSQKNYLAWYQQRPGQPPKLLIYWASTRESGVPDRFSGSGSGTDFTLTISRLQAEDVAVYYCHQYLSSRTFGGGTKVEIK", "M⁻¹ s⁻¹", 641000),
    ("My96-H3L2 (antibody, human IgG1, V domains shown, Humanized My96 IgG (human IgG1 frameworks), expressed in DG44 cells; also called hMy96 L2H3 (variable domains as in BsAb BC248); humanized My96 VH-3/VL-2) VH: QVQLVQSGAEVKKPGASVKVSCKASGYTFTSYYIHWVRQAPGQGLEWMGVIYPGNDDISYAQKFQGRVTITADKSATTAYMELSSLRSEDTAVYYCAREVRLRYFDVWGQGTLVTVSS VL: NIVLTQSPDSLAVSLGERATINCKSSQSVFFSSSQKNYLAWYQQKPGQPPKLLIYWASTRESGVPDRFSGSGSGTDFTLTISSLQAEDVAVYYCHQYLSSRTFGGGTKLEIK", "M⁻¹ s⁻¹", 543000),
    ("My96-H3L3 (antibody, human IgG1, V domains shown, Humanized My96 IgG (human IgG1 frameworks), expressed in DG44 cells; also called humanized My96 VH-3/VL-3) VH: QVQLVQSGAEVKKPGASVKVSCKASGYTFTSYYIHWVRQAPGQGLEWMGVIYPGNDDISYAQKFQGRVTITADKSATTAYMELSSLRSEDTAVYYCAREVRLRYFDVWGQGTLVTVSS VL: NIVLTQSPDSLAVSLGERATINCKSSQSVFFSSSQKNYLAWYQQRPGQPPKLLIYWASTRESGVPDRFSGSGSGTDFTLTISRLQAEDVAVYYCHQYLSSRTFGGGTKVEIK", "M⁻¹ s⁻¹", 625000),
]

API: the following record is the query input.
Using the record for chMy96 (antibody, V domains shown, also called chimeric form of My96; chimeric anti-CD33 antibody) VH: QVQLQQPGAEVVKPGASVKMSCKASGYTFTSYYIHWIKQTPGQGLEWVGVIYPGNDDISYNQKFKGKATLTADKSSTTAYMQLSSLTSEDSAVYYCAREVRLRYFDVWGAGTTVTVSS VL: NIMLTQSPSSLAVSAGEKVTMSCKSSQSVFFSSSQKNYLAWYQQIPGQSPKLLIYWASTRESGVPDRFTGSGSGTDFTLTISSVQSEDLAIYYCHQYLSSRTFGGGTKLEIK , report its kon.
739000
